Below: a set of entries, each annotated with reported AC50.
Target: Prothrombin (Homo sapiens); further: assay procedure not described here
Format: functional
measurement_type: AC50

1) Cc1cn([C@H]2C[C@H](N=[N+]=[N-])[C@@H](CO)O2)c(=O)[nH]c1=O :: > 30 µM
2) CO[C@H]1C[C@@H]2CC[C@@H](C)[C@@](O)(O2)C(=O)C(=O)N2CCCC[C@H]2C(=O)O[C@H]([C@H](C)C[C@@H]2CC[C@@H](O)[C@H](OC)C2)CC(=O)[C@H](C)/C=C(\C)[C@@H](O)[C@@H](OC)C(=O)[C@H](C)C[C@H](C)/C=C/C=C/C=C/1C :: > 30 µM
3) CCCCS(=O)(=O)N[C@@H](Cc1ccc(OCCCCC2CCNCC2)cc1)C(=O)O :: > 30 µM
4) Cc1cc(C#N)cc(C)c1Oc1nc(Nc2ccc(C#N)cc2)nc(N)c1Br :: > 30 µM

The measurements presented in this section are drawn from ChEMBL document CHEMBL5291721.
